Listed here: items and their measured IC50.
# measuredTarget: Bile salt export pump (Homo sapiens)
# protocolDetails: Inhibition of human BSEP expressed in fall armyworm sf9 cell plasma membrane vesicles assessed as reduction in vesicle-associated [3H]-taurocholate transport preincubated for 10 mins prior to ATP addition measured after 15 mins in presence of [3H]-taurocholate by topcount based membrane vesicle transport assay
# Type: ADME

compound=CCc1oc2ccccc2c1C(=O)c1cc(Br)c(O)c(Br)c1 propertyname=IC50 result="17.5 µM"

Report measured IC50; entry is CC(=O)[C@H]1[C@H](C#N)C[C@H]2[C@@H]3CC=C4CC(O)CC[C@]4(C)[C@H]3CC[C@@]21C (stereo partly specified)
> 135 µM
